Please respond with reported Percent Effect for every item in the list.
Target: Tyrosyl-tRNA synthetase, putative (Trypanosoma cruzi (strain CL Brener)) (UniProt Q4DSP6)
Sequence (whole entry): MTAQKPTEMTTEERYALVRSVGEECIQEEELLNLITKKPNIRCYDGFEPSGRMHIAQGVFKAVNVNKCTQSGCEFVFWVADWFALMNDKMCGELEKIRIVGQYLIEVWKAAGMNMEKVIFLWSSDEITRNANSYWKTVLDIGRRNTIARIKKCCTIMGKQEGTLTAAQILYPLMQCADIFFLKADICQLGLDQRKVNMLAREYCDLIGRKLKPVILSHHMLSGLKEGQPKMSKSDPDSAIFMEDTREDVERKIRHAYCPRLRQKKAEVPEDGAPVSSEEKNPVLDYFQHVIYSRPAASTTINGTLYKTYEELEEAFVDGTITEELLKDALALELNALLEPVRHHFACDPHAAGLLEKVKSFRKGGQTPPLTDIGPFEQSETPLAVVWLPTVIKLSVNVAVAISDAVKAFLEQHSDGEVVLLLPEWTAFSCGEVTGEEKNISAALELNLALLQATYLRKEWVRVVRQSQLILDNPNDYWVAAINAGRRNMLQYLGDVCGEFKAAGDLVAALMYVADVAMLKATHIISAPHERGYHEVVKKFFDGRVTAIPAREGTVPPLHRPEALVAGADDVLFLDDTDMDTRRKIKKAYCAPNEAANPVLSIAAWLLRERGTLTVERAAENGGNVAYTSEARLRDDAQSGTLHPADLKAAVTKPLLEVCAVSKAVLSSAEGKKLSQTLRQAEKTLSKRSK
Assay: Trypanosoma cruzi tyrosyl tRNA synthetase (TcYRS) SOP
Assay type: functional
Parameters: scale not given: direction of the effect not stated beside the values
Details: 30 µM
One number for each entry, in %.

Recorded Percent Effect, per entry:
molecule=Cc1cc(CN2CC[C@H]3OCC[C@@]3(C(=O)NC(C)C)C2)no1 measurednumber=11.5
molecule="c1ccc(N2CCCC3(CCN(Cc4cccs4)C3)C2)nc1 (stereo unspecified)" measurednumber=-2.5
molecule="COCC(=O)NC(C)Cc1cccc(OC)c1 (stereo unspecified)" measurednumber=21.9
molecule=O=C(COc1ccccc1)N1C[C@@H](O)[C@H](N2CCCC2)C1 measurednumber=3.9
molecule=c1cc(COC[C@@H]2CCC[C@@]23CNCCO3)ccn1 measurednumber=0

Next item in the queue.
Annotate the molecule c1ccc(CN2C[C@@H]3OCCN(c4ncccn4)[C@@H]3C2)nc1 with its measured Percent Effect.
8.97

* * *

Biological target: Shiga toxin 2 (Escherichia coli O157:H7) (UniProt P09385+P09386)
Assay: E. coli 0.157:H7 Shiga Toxin SOP - stx2 screening assay
Format: functional
Set-up: scale not given: direction of the effect not stated beside the values
Settings: 30 µM
Would you mind telling me the reported Percent Effect of each entry?
Give bare numbers, in %.

compound="COc1ccc(C(=O)N2CCCC2c2ccco2)cc1OC (configuration not stated)" reportedendpoint="Percent Effect" measurednumber=-11.3
compound=Cc1nccn1-c1cc(CNC(=O)c2ccccn2)ccn1 reportedendpoint="Percent Effect" measurednumber=-3.43
compound=c1cnc(-c2cnc(N3CCSCC3)nc2C2CC2)cn1 reportedendpoint="Percent Effect" measurednumber=4.88
compound=Cc1cc(-c2cnc(NC3CCCC3)nc2-c2ccoc2C)on1 reportedendpoint="Percent Effect" measurednumber=-25.8
compound="COc1cccc(CN2CCCC(Nc3cccc(F)c3)C2)c1O (configuration not stated)" reportedendpoint="Percent Effect" measurednumber=11.2
compound=O=C(NCCNc1cnccn1)N1CCCC1 reportedendpoint="Percent Effect" measurednumber=2.11
compound=Cc1nc(COC[C@@H]2CC[C@H]3[C@H](CCN3S(C)(=O)=O)O2)cs1 reportedendpoint="Percent Effect" measurednumber=1.49
compound="Cc1cc(N2CCN(Cc3ccccc3)CC(O)C2)cc(C)n1 (configuration not stated)" reportedendpoint="Percent Effect" measurednumber=-16.3
compound="c1coc(-c2nnc(CN3CCCC(CN4CCCCCC4)C3)o2)c1 (configuration not stated)" reportedendpoint="Percent Effect" measurednumber=-14.6
compound=CC(C)(C)C(=O)NCCC(=O)NS(=O)(=O)c1ccc2c(c1)OCCO2 reportedendpoint="Percent Effect" measurednumber=0.645

Hi! Can you tell me Percent Effect for each of these compounds?
1. Cc1cn2c(n1)CCC(NC(=O)c1cc(C(C)C)no1)C2 (configuration not stated)
2. CCn1ccnc1CN1CCN(Cc2ccc(C#N)cc2)CC1

-5.41
-29.2

Origin of measurements: ChEMBL document CHEMBL3988442
